Readings of TGI for the listed compounds
- System: NCI-H460 lung
- test: NCI tumour cell line growth inhibition, 48 h

// known answers, use as guide
C=C1C(O)C2C(=C(C)C13CC3)C(=O)C(C)(C)C2OC (stereo not given); > 100 µM
Cn1cc(-c2csc(-c3cn(C)c4ccc(F)cc34)n2)c2cnccc21; 3.71 µM
COc1cc2c(cc1O)NC(=O)[C@@H]1CCCN1C2=O; > 100 µM
COc1ccc(/C=N/n2cnc3c(c2=O)SC(=C(C#N)C#N)N3c2ccccc2)cc1; > 100 µM
O=C1/C(=C/N2N=C(c3ccc4ccccc4c3)CC2c2ccccc2O)SC(=S)N1c1cccnc1 (stereo not given); > 100 µM
CC(=O)OCC1OC(n2c(C)c(N=Nc3ccc(Cl)cc3)c(C)c(C#N)c2=S)C(OC(C)=O)C(OC(C)=O)C1OC(C)=O (stereo not given); > 100 µM
Oc1ccc(N=Nc2nccs2)c(O)c1; 17.9 µM
COc1ccc(/C(Cl)=C(\C#N)c2ccc(OC)c(OC)c2)cc1OC; > 100 µM

Endpoint output: TGI of CCOc1ccc(N=Cc2c3ccccc3nc3ccccc23)cc1 . Value?
> 100 µM

// repeat for CC(=O)NC1C(Sc2ncn(C3OC(CO)C(O)C(O)C3NC(C)=O)n2)OC(CO)C(O)C1O (stereo not given) and report
> 100 µM

---

- Test system: ACHN renal
- test: NCI tumour cell line growth inhibition, 48 h; in the data active = GI50 below about 0.43 µM; inactive = the rest
Write down one outcome, taken from 1 (yes) (active), 0 (no) (inactive)

These recorded examples may help you get a feel for the data.
O=C(NC1CCCCC1)c1ccc(Nc2ncnc3c2cnn3-c2ccccc2)cc1; 0 (no)
O=C(N/N=C/c1ccc(O)cc1O)c1cccnc1; 0 (no)
CN1C(NNC(=O)c2cccnc2)=NS(=O)(=O)c2cc(Cl)ccc21; 0 (no)
C=C(C)[C@@H]1CC[C@]2(C)[C@H](CC[C@@H]3[C@@H]([C@@](C)(O)CCC=C(C)C)CC[C@]32C)[C@@]1(C)CCC(=O)O; 0 (no)
NC(N)=N/N=C(\N=Nc1ccccc1)c1ccc(Cl)cc1; 0 (no)

In this assay, the call recorded for COC(=O)[C@]12CC[C@@H](C)[C@H](C)[C@@H]1C1=CC[C@@H]3[C@@]4(C)C(C=O)=C[C@@](C)(COC(=O)c5ccco5)[C@@H]4[C@H](O)C[C@@]3(C)[C@]1(C)CC2 was what?
0 (no)

// repeat for CNCCn1c(=O)c2cc(OC)c(OC)cc2c2cnc3cc4c(cc3c21)OCO4 and report
1 (yes)

// repeat for NCCCn1c2c(c3ccccc3c1=O)C(=O)c1ccccc1-2 and report
1 (yes)

// repeat for Oc1ccc(Oc2cnc3ccccc3n2)cc1 and report
0 (no)

// repeat for O=C1/C(=C/N2N=C(c3ccc4ccccc4c3)CC2c2ccccc2O)SC(=S)N1c1cccnc1 (stereo not drawn) and report
0 (no)

---

- Tested on: MOLT-4 leukemia
- test: NCI tumour cell line growth inhibition, 48 h
Readings of TGI for the listed compounds

CC(NC(=O)c1c(O)[nH]c(=S)[nH]c1=O)c1ccc([N+](=O)[O-])cc1 (centres undefined); 95 µM
CCOC(=O)C(Cc1ccc(O)cc1)Nc1nc(=O)c2c(=O)oc(Cl)cc2o1 (centres undefined); 10.1 µM
COc1ccc(-c2cc(Nc3ccnc(N4CCOCC4)n3)on2)cc1; 25.5 µM
CN1CCCOC(c2ccc(Cl)cc2)O1 (centres undefined); > 100 µM
CCCCC1C=Cn2c(=O)oc3c(OC(C)C)c(C)c(O)c1c32 (centres undefined); 3.33 µM

Enter reported TGI observed with MOLT-4 leukemia for COC(=O)[C@]12CC[C@@H](C)[C@H](C)[C@@H]1C1=CC[C@@H]3[C@@]4(C)C(C=O)=C[C@@](C)(COC(=O)c5ccco5)[C@@H]4[C@H](O)C[C@@]3(C)[C@]1(C)CC2
7.5 µM

// repeat for CC(NC(=O)Cc1ccccc1)NC(=O)C(C)C(=O)NCc1ccccc1 (centres undefined) and report
> 100 µM

// repeat for N#Cc1cc2c(cc1Cl)Sc1nnc(Nc3ccccc3)n1S2(=O)=O and report
4.06 µM

// repeat for CCOC(=O)C(C)(c1c(C)[nH]c2ccccc12)c1c(C)[nH]c2ccccc12 and report
42.9 µM

---

Readings of TGI for the listed compounds
- Tested on: PC-3 prostate
- test: NCI tumour cell line growth inhibition, 48 h
The response must be a number in µM with no trailing unit.

Endpoint output: TGI of COc1ccc(N2C(=O)C(=O)N(c3ccc(N=Nc4ccccc4)cc3)C2=S)cc1 . Value?
33.8

// repeat for CN(C)CCNc1nc2ccccc2c2c(=O)c3cc(F)ccc3sc12 and report
3.37

---

- Test system: SNB-19 CNS
- test: NCI tumour cell line growth inhibition, 48 h
measurement.kind: TGI

// known answers, use as guide
CNC(C)[C@H]1CCC2C3CC=C4C(=O)[C@@H](NC(=O)C=C(C)C)CC[C@]4(C)C3CC[C@@]21C (stereo partly drawn); 17.4 µM
Oc1ccc(/C=C/c2cc(O)cc3c2C(c2cc(O)cc(O)c2)C(c2ccc(O)c(O)c2)O3)cc1 (stereo not drawn); 54.3 µM
c1ccc2c3[nH]c(c2c1)=Nc1ccc(cc1)-c1nc2ccc(cc2o1)N=c1[nH]c(c2ccccc12)=Nc1ccc2nc(oc2c1)-c1ccc(cc1)N=3; 81 µM
CN1CCCOC(c2ccc(Cl)cc2)O1 (stereo not drawn); > 100 µM
CSc1ccc2c(cc1=O)[C@@H](NC(=O)c1cc(O)c(O)c(O)c1)CCc1cc(O)c(O)c(O)c1-2; > 100 µM

Endpoint output: TGI of Cc1noc2c1-c1ccccc1C(c1ccc(Cl)cc1)=N[C@H]2CC(N)=O . Value?
> 100 µM

// repeat for O=[N+]([O-])c1ccc(Sc2c3ccccc3nc3ccccc23)cn1 and report
> 66.6 µM

// repeat for CCOC(=O)c1ccc(-c2ccc(Cl)cc2)[nH]1 and report
> 10 µM

---

- Tested on: SNB-19 CNS
- test: NCI tumour cell line growth inhibition, 48 h
measurement.kind: TGI

CCOC(=O)C1=C(Nc2ccc(Br)cc2)OCC1=O; > 100 µM

Endpoint output: TGI of COc1ccc(C2(CC(C)C)CCN(S(=O)(=O)c3ccc(C)cc3)C2)cc1OC (stereo not given) . Value?
> 100 µM

// repeat for Cc1sc2c(c1C)C(c1ccc(Cl)cc1)=N[C@@H](CC(=O)Nc1ccc(OCCOCCOCCOCCNc3cccc4c3C(=O)N(C3CCC(=O)NC3=O)C4=O)cc1)c1nnc(C)n1-2 (stereo not given in full) and report
> 100 µM

---

Readings of TGI for the listed molecules
- System: T-47D breast
- test: NCI tumour cell line growth inhibition, 48 h

// known answers, use as guide
CC(NC(=O)Cc1ccccc1)NC(=O)C(C)C(=O)NCc1ccccc1 (stereo unspecified); > 100 µM
CCCCCCCCCCCC(=O)OC[C@@H](C[As](=O)(O)O)OC(=O)CCCCCCCCCCC; 37.7 µM
Cc1n[n+](Cc2ccccc2)c2sc(N)nn12; > 100 µM

Endpoint output: TGI of CC(=O)NC1CONC1=O (stereo unspecified) . Value?
> 100 µM

// repeat for O=c1cc(CF)[nH]c(=S)[nH]1 and report
> 100 µM

// repeat for Cc1c2c(C(N)=O)nccc2c(C)c2c1c1ccccc1n2Cc1ccccc1 and report
79.5 µM

---

- Test system: SF-295 CNS
- test: NCI tumour cell line growth inhibition, 48 h
measurement.kind: log10 of TGI (log10 of the value in µM)
For clarity, the numbers are log10 values of TGI expressed in µM.

COc1cc(Nc2nc3cc(C(F)(F)F)ccc3nc2C(=O)O)cc(OC)c1OC; 1.83

Endpoint output: log10 of TGI of C/C(=N\NC(=S)N1CCCC1)c1nc2ncccc2[nH]1 . Value?
1.35

// repeat for CS(=O)(=O)CS(=O)(=O)OCCCl and report
2.74

// repeat for O=C1C=C(Nc2ccc(S(=O)(=O)Nc3nccs3)cc2)c2ccccc2C1=O and report
1.51

// repeat for COc1cc(/C=C/C(=O)C(C(=O)/C=C/c2ccc(OC(=O)CCNC34CC5CC(CC(C5)C3)C4)c(OC)c2)C(=O)CCNC23CC4CC(CC(C4)C2)C3)ccc1OC(=O)CCNC12CC3CC(CC(C3)C1)C2 (stereo not drawn) and report
1.54

// repeat for CCOC(=O)C(C)(c1c(C)[nH]c2ccccc12)c1c(C)[nH]c2ccccc12 and report
1.46

---

- System: OVCAR-5 ovarian
- test: NCI tumour cell line growth inhibition, 48 h
measurement.kind: TGI

COCn1cnc2c(=O)nc(SC)n(-c3ccccc3)c21; > 100 µM
COc1ccc(/C=C/c2cnccn2)cc1OC; > 10 µM
O=c1[nH]nc(Cc2ccc(Cl)cc2)n1/N=C/c1cccs1; > 100 µM
C/C=C\C(CC(=O)NCC(=O)c1c[nH]c2ccccc12)CC(=O)OC (stereo not given); > 100 µM

Endpoint output: TGI of COc1ccc(/C=N/n2cnc3c(c2=O)SC(=C(C#N)C#N)N3c2ccccc2)cc1 . Value?
> 100 µM

// repeat for O=C1c2ccccc2C(=O)c2c(NCCN=Cc3ccccc3O)cccc21 and report
99.3 µM

// repeat for CC(=O)[CH-]C(=O)c1ccccc1.CC(=O)[CH-]C(=O)c1ccccc1.O=S(=O)([O-])c1cc([O-])c2c([O-])cc(S(=O)(=O)[O-])cc2c1.[Na+].[Ti+4] and report
> 100 µM

// repeat for O=C1C2[C@@H](C(=O)N1c1ccc(Br)cc1)C13C(=CC2([N+](=O)[O-])[C@@H]2C(=O)N(c4ccc(Br)cc4)C(=O)[C@@H]21)c1ccccc1N3c1ccccc1 (stereo not given in full) and report
> 100 µM

// repeat for CC(C)(C)c1cc(C(=O)/C=C/c2ccc(C(=O)O)cc2)cc(C(C)(C)C)c1 and report
17.2 µM

// repeat for Cc1ccc(C(=O)NCc2ccccc2)cc1N=NN(C)C and report
> 100 µM

// repeat for NC(=O)c1cn(Cc2ccccc2)c(=O)n1Cc1ccccc1 and report
> 100 µM

// repeat for CC(=O)OC(CCC1(C)OC1COc1ccc(CCNC(=O)C=C(C)C)cc1)C(C)(C)OC(C)=O (stereo not given) and report
> 100 µM

// repeat for N#Cc1cc2c(cc1Cl)Sc1nnc(Nc3ccccc3)n1S2(=O)=O and report
3.8 µM
